Each recorded value in this set is attributed to patent US20230329236A1.

tested on: Amaranthus retroflexus (AMARE); assay: Post-emergence glasshouse test, visual injury, AMARE; type: in vivo; conditions: 336 h, Table 3, post-emergence, 62 g/ha, 14±1 days post application
property label: pest or weed control at 62 g/ha

>  <compound>
Cc1cc(-c2cnc(NCc3ccccc3C)nc2C(C)C)on1 [Compound 98]

>  <pest or weed control at 62 g/ha>
60%

$$$$
>  <compound>
CC(C)c1nc(NC2CCCC2)ncc1-c1cncs1 [Compound 124]

>  <pest or weed control at 62 g/ha>
10%

$$$$
>  <compound>
Cc1cc(-c2cnc(NCc3ccncc3F)nc2C(C)C)on1 [Compound 95]

>  <pest or weed control at 62 g/ha>
30%

$$$$
>  <compound>
Cc1ccc(CNc2ncc(-c3cc(C)no3)c(C(C)C)n2)cc1 [Compound 100]

>  <pest or weed control at 62 g/ha>
80%

$$$$

Write down pest or weed control at 62 g/ha measured for item Cc1cc(-c2cnc(NCc3cccc(C#N)c3)nc2C(C)C)on1 [Compound 97]
50%

Write down pest or weed control at 62 g/ha measured for item Cc1ncc(-c2cnc(NC3CCCC3)nc2C(C)C)s1 [Compound 123]
0%

Write down pest or weed control at 62 g/ha measured for item Cc1cc(-c2cnc(NCc3ccccc3Cl)nc2C(C)C)on1 [Compound 101]
50%

Write down pest or weed control at 62 g/ha measured for item Cc1cc(-c2cnc(NCc3ccc(Cl)cc3)nc2C(C)C)on1 [Compound 102]
98%

Write down pest or weed control at 62 g/ha measured for item Cc1cc(-c2cnc(NCc3ccc(F)cn3)nc2C(C)C)on1 [Compound 96]
50%

Write down pest or weed control at 62 g/ha measured for item Cc1cc(-c2cnc(NCc3ccccc3)nc2C(C)C)on1 [Compound 94]
60%

Write down pest or weed control at 62 g/ha measured for item Cc1cccc(CNc2ncc(-c3cc(C)no3)c(C(C)C)n2)c1 [Compound 99]
60%
